# PROCEDURE DETAILS: viability loss of HPDE-C7K cells – cell-based, fluorescence, HTS, primary screen (AID 431);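 further: 0% = DMSO solvent wells and 100% = doxorubicin-treated wells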
# CONDITION SET: HPDE-C7K KRASV12 cells, Alamar Blue viability, 48 h; at 10 µM; active compounds read high
In all, about 63,000 compounds went through this assay and about 1,100 (1.7%) were called active. Only a selection was taken, and actives are over-represented in it overall. Potency and affinity values are given separately.
ASSAY METRIC: cytotoxicity (%)
State just the number; it will be interpreted in %.

COc1cccc(C(=O)Nc2ccc(C)cc2)c1 : 4.1
COc1ccc(NC(=O)C2CC2)cc1-n1cnnn1 : -12.2
COc1cccc(C(=O)/C=C/Nc2cc(C)ccc2O)c1 : 69.1
C/C(=C\C(=O)c1ccc(C)cc1)Nc1cccc(O)c1 : -15.4
CCSc1nnc(NC(=O)c2cc(C)oc2C)s1 : 10.1
O=C(/C=C/Nc1cccc(O)c1)c1ccccc1 : 15

Data request: Answer with reported cytotoxicity of Cn1nnnc1SCCNC/C=C/c1ccccc1
Data returned: 14.4

Data request: Answer with reported cytotoxicity of CC(=O)NC1CSCC1OC(C)=O (stereo not drawn)
Data returned: -14.9

Data request: Answer with reported cytotoxicity of Cc1ccc(C(=O)/C=C/Nc2cccc(O)c2)cc1
Data returned: 60.9

Data request: Answer with reported cytotoxicity of Cc1nc2ccccc2n1-c1ccccc1
Data returned: -12.4

Data request: Answer with reported cytotoxicity of Cc1cccc(OCC(=O)Nc2cc(C)ccc2O)c1
Data returned: -1.5

Data request: Answer with reported cytotoxicity of CC1CN(S(=O)(=O)c2ccc(NC(=O)c3ccco3)cc2)CC(C)O1 (stereo not drawn)
Data returned: -0.1

Data request: Answer with reported cytotoxicity of O=C(CN(Cc1ccco1)S(=O)(=O)c1cccs1)Nc1ccccc1C(F)(F)F
Data returned: -23.6
